This collection of values is drawn from ChEMBL document CHEMBL5154884.

# Tested on: MDA-MB-231
# Assay explanation: Antiproliferative activity against human MDA-MB-231 cells assessed as inhibition of cell growth incubated for 48 hrs by MTT assay
# Format: functional, cell-based
# Test parameters: Homo sapiens, MDA-MB-231, 48 h
pIC50: −log10 of the molar value.
Measurement name: pIC50

[[record]]
smiles_entry = "Cc1nc2c(F)cc(-c3nc(Nc4ccc(Sc5cnc(N6CCC7(CC6)CO[C@@H](C)[C@H]7N)cn5)c(Cl)c4)ncc3F)cc2n1C(C)C"
result_operator = "="
observed = 5.49

[[record]]
smiles_entry = "Cc1nc2c(F)cc(-c3nc(Nc4nccc(Sc5cnc(N6CCC7(CC6)CO[C@@H](C)[C@H]7N)cn5)c4Cl)ncc3F)cc2n1C(C)C"
result_operator = "="
observed = 5.25

[[record]]
smiles_entry = "CCN1CCN(Cc2ccc(Nc3ncc(F)c(-c4cc(F)c5nc(C)n(C(C)C)c5c4)n3)nc2)CC1"
result_operator = "<"
observed = 4.70

[[record]]
smiles_entry = "Cc1nc2c(F)cc(-c3nc(Nc4cc(Sc5cnc(N6CCC7(CC6)CO[C@@H](C)[C@H]7N)cn5)ccn4)ncc3F)cc2n1C(C)C"
result_operator = "="
observed = 5.29

[[record]]
smiles_entry = "Cc1nc2c(F)cc(-c3nc(Nc4cccc(Sc5cnc(N6CCC7(CC6)CO[C@@H](C)[C@H]7N)cn5)c4Cl)ncc3F)cc2n1C(C)C"
result_operator = "="
observed = 5.34

[[record]]
smiles_entry = "Cc1nc2c(F)cc(-c3nc(Nc4nccc(Sc5cnc(N6CCC7(CC6)Cc6ccccc6[C@H]7N)cn5)c4Cl)ncc3F)cc2n1C(C)C"
result_operator = "="
observed = 5.35


###

# Target entity: Tyrosine-protein phosphatase non-receptor type 11 (Homo sapiens, UniProt Q06124)
# Sequence (Q06124 whole entry): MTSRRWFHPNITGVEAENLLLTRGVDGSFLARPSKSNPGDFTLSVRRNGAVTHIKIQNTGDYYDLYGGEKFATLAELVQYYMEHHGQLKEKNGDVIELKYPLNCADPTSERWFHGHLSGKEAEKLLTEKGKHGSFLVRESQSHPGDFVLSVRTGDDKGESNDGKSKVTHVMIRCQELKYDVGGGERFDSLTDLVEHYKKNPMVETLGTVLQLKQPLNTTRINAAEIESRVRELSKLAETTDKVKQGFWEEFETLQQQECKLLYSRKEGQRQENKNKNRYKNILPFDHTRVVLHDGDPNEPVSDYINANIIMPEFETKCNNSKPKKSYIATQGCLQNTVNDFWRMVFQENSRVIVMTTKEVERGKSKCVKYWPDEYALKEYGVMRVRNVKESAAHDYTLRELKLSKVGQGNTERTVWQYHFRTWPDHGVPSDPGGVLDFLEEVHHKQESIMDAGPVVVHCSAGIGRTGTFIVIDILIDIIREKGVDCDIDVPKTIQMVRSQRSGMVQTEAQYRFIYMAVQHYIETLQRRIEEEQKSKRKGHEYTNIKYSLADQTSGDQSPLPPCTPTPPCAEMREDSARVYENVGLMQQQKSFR
# Assay explanation: Inhibition of SHP2 (unknown origin) using DiFMUP as substrate incubated for 60 mins followed by substrate addition for 30 mins by microplate reader method
Measurement name: IC50 (nM)

[[record]]
smiles_entry = "CN(C)C(=O)c1cc2cnc(Nc3nccc(Sc4cnc(N5CCC6(CC5)Cc5ccccc5[C@H]6N)cn4)c3Cl)nc2n1C1CCCC1"
target_entity = "Tyrosine-protein phosphatase non-receptor type 11 (Homo sapiens, UniProt Q06124)"
measurement_name = "IC50"
display_unit = "nM"
observed = 3.2

[[record]]
smiles_entry = "Cc1nc2c(F)cc(-c3nc(Nc4ccc(Sc5cnc(N6CCC7(CC6)Cc6ccccc6[C@H]7N)cn5)c(Cl)n4)ncc3F)cc2n1C(C)C"
target_entity = "Tyrosine-protein phosphatase non-receptor type 11 (Homo sapiens, UniProt Q06124)"
measurement_name = "IC50"
display_unit = "nM"
observed = 673

[[record]]
smiles_entry = "Cc1nc2c(F)cc(-c3nc(Nc4nccc(Sc5cnc(N6CCC7(CC6)Cc6ccccc6[C@H]7N)cn5)c4Cl)ncc3F)cc2n1C(C)C"
target_entity = "Tyrosine-protein phosphatase non-receptor type 11 (Homo sapiens, UniProt Q06124)"
measurement_name = "IC50"
display_unit = "nM"
observed = 8.2

[[record]]
smiles_entry = "CN(C)C(=O)c1cc2cnc(Nc3nccc(Sc4cnc(N5CCC(C)(N)CC5)cn4)c3Cl)nc2n1C1CCCC1"
target_entity = "Tyrosine-protein phosphatase non-receptor type 11 (Homo sapiens, UniProt Q06124)"
measurement_name = "IC50"
display_unit = "nM"
observed = 31.3

